Origin of the recorded values: patent US20220010021A1

- test-system: human FGFR1c + KLB receptor complex on HEK293 iLite FGF21 reporter cells (human, UniProt P11362 22-822; Q86Z14 1-1044)
- Sequence (P11362 22-822, chain 1 of 2): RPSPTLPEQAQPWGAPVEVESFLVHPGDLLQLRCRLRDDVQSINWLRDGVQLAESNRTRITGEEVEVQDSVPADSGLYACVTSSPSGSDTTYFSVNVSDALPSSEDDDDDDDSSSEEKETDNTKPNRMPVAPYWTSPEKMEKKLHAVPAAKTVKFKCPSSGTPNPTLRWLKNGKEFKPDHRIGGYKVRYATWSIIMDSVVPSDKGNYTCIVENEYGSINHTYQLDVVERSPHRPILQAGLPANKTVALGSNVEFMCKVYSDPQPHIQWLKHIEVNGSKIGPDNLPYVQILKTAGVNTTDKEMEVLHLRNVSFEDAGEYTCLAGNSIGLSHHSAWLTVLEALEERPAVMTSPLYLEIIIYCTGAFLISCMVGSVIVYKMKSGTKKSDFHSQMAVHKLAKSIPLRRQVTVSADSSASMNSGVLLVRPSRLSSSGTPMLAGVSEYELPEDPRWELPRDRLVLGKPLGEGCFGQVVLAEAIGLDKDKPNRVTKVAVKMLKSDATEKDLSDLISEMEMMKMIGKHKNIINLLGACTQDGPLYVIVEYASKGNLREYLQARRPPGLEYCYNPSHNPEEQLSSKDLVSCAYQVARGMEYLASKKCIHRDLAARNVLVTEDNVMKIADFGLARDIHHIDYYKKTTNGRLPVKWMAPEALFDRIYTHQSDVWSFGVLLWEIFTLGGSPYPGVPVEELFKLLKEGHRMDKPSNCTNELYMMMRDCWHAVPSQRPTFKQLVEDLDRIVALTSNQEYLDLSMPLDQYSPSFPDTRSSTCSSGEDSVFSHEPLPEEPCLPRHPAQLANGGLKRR
- Sequence (Q86Z14 whole entry, chain 2 of 2): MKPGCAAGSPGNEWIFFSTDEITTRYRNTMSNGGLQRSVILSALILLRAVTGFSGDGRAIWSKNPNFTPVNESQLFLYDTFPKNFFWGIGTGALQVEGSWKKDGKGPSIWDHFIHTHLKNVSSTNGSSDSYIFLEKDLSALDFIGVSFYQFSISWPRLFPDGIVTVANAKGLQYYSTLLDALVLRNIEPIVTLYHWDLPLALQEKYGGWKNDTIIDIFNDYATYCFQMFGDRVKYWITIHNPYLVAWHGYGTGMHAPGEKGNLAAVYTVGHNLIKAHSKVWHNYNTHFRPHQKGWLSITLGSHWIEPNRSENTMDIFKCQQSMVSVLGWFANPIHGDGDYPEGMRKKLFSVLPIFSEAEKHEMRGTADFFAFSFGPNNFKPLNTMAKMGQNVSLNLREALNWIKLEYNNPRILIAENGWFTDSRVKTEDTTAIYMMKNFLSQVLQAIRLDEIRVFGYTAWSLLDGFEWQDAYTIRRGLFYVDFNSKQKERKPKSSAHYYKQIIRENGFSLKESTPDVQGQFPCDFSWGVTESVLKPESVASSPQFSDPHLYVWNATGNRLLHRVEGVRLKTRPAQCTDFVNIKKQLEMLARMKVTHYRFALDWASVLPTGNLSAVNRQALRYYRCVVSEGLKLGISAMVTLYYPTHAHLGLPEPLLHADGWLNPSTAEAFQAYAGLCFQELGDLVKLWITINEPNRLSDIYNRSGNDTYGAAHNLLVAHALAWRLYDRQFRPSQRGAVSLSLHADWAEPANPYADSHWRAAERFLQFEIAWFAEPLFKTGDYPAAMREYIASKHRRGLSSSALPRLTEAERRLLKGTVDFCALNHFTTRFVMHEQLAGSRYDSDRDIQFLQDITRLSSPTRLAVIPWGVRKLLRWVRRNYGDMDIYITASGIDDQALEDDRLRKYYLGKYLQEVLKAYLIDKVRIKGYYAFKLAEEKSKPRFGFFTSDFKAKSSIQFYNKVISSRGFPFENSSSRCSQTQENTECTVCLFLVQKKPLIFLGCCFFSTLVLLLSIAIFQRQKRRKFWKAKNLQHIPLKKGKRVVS
- experiment-summary: cell-based or functional assay
# label = yes if Emax < 1000% else no

query: Decide: Emax of Ab0297 (antibody, IgG4, V domains shown, IgG4 PE) VH: QVTLKESGPVLVKPTETLTLTCTVSGFSLNNARVGVSWIRQPPGKALEWLAHIFSNDEKSYSTSLKSRLTISKDTSKSQVVLTMTNMDPVDTATYYCARSVVTGGYYYEGMDVWGQGTTVTVSS VL: SYVLTQPPSVSVAPGQTARITCGGNNIGSESVHWYQQKPGQAPVLVVYYESDRPSGIPERFSGSNSGNTATLTISRVEAGDEADYYCQVWDGNSDHVVFGGGTKLTVLG strictly below 1000%?
result: no

query: Emax strictly < 1000% for this binder? Ab0307 (antibody, IgG4, V domains shown, IgG4 PE) VH: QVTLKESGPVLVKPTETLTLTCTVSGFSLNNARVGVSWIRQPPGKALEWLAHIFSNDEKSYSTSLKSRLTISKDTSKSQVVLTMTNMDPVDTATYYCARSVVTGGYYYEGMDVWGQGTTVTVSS VL: SYVLTQPPSVSVAPGQTARITCGGNNIGSESVHWYQQKPGQAPVLVVYYDSDRPSGIPERFSGSNSGNTATLTISRVEAGDEADYYCQVWDGESDHVVFGGGTKLTVLG
result: no

query: Find out if reported Emax for Ab0346 (antibody, IgG4, V domains shown) VH: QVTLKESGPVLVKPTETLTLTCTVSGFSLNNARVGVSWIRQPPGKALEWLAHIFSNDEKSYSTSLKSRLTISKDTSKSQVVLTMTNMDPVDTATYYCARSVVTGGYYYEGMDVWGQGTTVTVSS VL: SYVLTQPPSVSVAPGQTARITCGGSNIGSESVHWYQQKPGQAPVLVVYAHSDRPSGIPERFSGSNSGNTATLTISRVEAGDEADYYCQVWAGSSDHVVFGGGTKLTVLG is less than 1000%
result: yes

query: Hello, is Emax of the following binder strictly smaller than 1000%? Ab0298 (antibody, IgG4, V domains shown, IgG4 PE) VH: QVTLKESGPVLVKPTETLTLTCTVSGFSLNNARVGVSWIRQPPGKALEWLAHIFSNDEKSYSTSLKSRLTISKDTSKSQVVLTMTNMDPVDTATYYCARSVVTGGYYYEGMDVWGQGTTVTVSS VL: SYVLTQPPSVSVAPGQTARITCGGSNIGSESVHWYQQKPGQAPVLVVYYESDRPSGIPERFSGSNSGNTATLTISRVEAGDEADYYCQVWDGNSDHVVFGGGTKLTVLG
result: no

query: Hi there! Is Emax for Ab0318 (antibody, IgG4, V domains shown) VH: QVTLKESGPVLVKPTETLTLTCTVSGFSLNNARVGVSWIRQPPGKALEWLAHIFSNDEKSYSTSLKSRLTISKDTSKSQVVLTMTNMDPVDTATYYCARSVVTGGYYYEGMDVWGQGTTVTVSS VL: SYVLTQPPSVSVAPGQTARITCGGSNIGSESVHWYQQKPGQAPVLVVYDESDRPSGIPERFSGSNSGNTATLTISRVEAGDEADYYCQVWTGESDHVVFGGGTKLTVLG below 1000%, do you know?
result: yes
